IC50 values for the compounds below.
System: K562 (human chronic myelogenous leukemia) cells
Assay info: Cell viability, Cell Titer Glo 2.0 assay, K562 cells
Format: cell-based
Conditions: 72 hours

Molecule smiles: Cc1nc2c(F)cc(-n3cc4sc(C5CCNCC5)cc4n3)cc2o1
Result: 1 to 10 µM
//
Molecule smiles: Cc1cn2cc(-n3cc4cc(C5CCNCC5)sc4n3)cc(F)c2n1
Result: 0.1 to 1 µM
//
Molecule smiles: COc1c(-c2cc3cn(C4CCNCC4)nc3s2)cc(F)c2nn(C)cc12
Result: > 10 µM

Suppose we examine the compound "Cn1cc2cc(-c3cc4cn(C5CCNCC5)nc4s3)c(F)cc2n1" ; what IC50 value has been reported? 0.1 to 1 µM

Suppose we examine the compound "Cc1cn2nc(-c3cc4cn(C5CCNCC5)nc4s3)cc(C)c2n1" ; what IC50 value has been reported? 1 to 10 µM

Suppose we examine the compound "Cc1cn2cc(-c3cc4cn(C5CCNCC5)nc4s3)cc(Cl)c2n1" ; what IC50 value has been reported? 0.1 to 1 µM

Suppose we examine the compound "CN(c1cc2nn(-c3ccc(-c4cn[nH]c4)cc3O)cc2s1)[C@@H]1C[C@H]2CC[C@@H](C1)N2" ; what IC50 value has been reported? 1 to 10 µM

Suppose we examine the compound "COc1c(-c2cc3cn(C4CCNCC4)nc3s2)nn2cc(C)nc(C)c12" ; what IC50 value has been reported? 1 to 10 µM

Suppose we examine the compound "Cc1cn2cc(-c3cc4cn(C5CCNCC5)nc4s3)cc(C)c2n1" ; what IC50 value has been reported? 0.1 to 1 µM

Suppose we examine the compound "CCN1CCC(n2cc3cc(-c4cc(F)c5nn(C)cc5c4)sc3n2)CC1" ; what IC50 value has been reported? 0.1 to 1 µM
